molecular target: BTK enzyme (recombinant full-length BTK, hBTK) (Homo sapiens, UniProt Q06187); construct: recombinant protein from baculovirus-transfected S 19 cells: full-length BTK, 6 HIS-tag cleaved; 6 HIS-tag (cleaved yes); test: Btk enzyme activity assay (LANCE TR-FRET); details: 50 pM hBTK, 25 μM ATP, 60 minute compound and enzyme incubation, concentration range 1 μM to 0.017 nM, read-out: BTK binding IC50
Sequence (Q06187 whole entry): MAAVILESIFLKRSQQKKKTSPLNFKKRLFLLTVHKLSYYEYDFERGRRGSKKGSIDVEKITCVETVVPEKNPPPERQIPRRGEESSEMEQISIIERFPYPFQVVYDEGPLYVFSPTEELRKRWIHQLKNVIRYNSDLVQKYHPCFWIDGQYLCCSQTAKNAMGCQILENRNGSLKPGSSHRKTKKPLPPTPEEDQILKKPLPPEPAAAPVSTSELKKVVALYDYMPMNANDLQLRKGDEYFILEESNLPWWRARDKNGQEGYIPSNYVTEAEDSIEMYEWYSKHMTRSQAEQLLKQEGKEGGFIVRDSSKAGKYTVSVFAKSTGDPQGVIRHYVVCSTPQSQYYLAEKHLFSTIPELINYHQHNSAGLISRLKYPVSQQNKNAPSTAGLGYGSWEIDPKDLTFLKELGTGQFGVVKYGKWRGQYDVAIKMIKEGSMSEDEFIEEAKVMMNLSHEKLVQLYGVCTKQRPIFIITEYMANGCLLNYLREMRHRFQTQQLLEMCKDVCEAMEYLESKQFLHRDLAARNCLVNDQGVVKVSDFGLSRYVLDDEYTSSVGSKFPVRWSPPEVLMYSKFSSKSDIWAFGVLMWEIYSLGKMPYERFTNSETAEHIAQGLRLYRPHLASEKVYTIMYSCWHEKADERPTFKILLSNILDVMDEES

molecule: C[C@H]1CO[C@@H](c2nc(-c3ccc(C(=O)Nc4cc(C5CC5)ccn4)cc3F)c3c(N)ncc(Cl)n23)CN1C1CCOCC1
IC50 [nM]: 0.358

molecule: C[C@H](O)C(=O)N1C[C@H](c2nc(-c3ccc(C(=O)Nc4cc(C(F)(F)F)ccn4)cc3)c3c(N)nccn23)OC[C@@H]1C
IC50 [nM]: 0.4

molecule: C[C@H]1CC[C@@H](c2nc(-c3ccc(C(=O)Nc4cc(C(C)(F)F)ccn4)cc3)c3c(N)nccn23)CN1C(=O)CO
IC50 [nM]: 0.168

molecule: CCOc1cc(C(=O)Nc2cc(C(F)(F)F)n(C)n2)ccc1-c1nc([C@@H]2CC[C@H](C)N(C(=O)[C@@H](C)O)C2)n2ccnc(N)c12
IC50 [nM]: 0.403

molecule: C[C@H]1CO[C@@H](c2nc(-c3ccc(C(=O)Nc4cc(C(F)(F)F)ccn4)cc3F)c3c(N)ncc(Cl)n23)CN1C(=O)C1CC1
IC50 [nM]: 0.626

molecule: COc1cc(C(=O)Nc2cc(C(F)(F)F)ccn2)ccc1-c1nc([C@H]2CN(C(=O)C3CCOCC3)[C@@H](C)CO2)n2ccnc(N)c12
IC50 [nM]: 1.74

molecule: CCOc1cc(C(=O)Nc2cc(C(F)(F)F)ccn2)ccc1-c1nc([C@H]2CC[C@H](C(F)(F)F)N(C(=O)C3CC3)C2)n2ccnc(N)c12
IC50 [nM]: 1.38

molecule: COc1cc(C(=O)Nc2cc(C(F)(F)F)ccn2)ccc1-c1nc([C@H]2CN(C3CN(Cc4ccc(F)cc4)C3)[C@@H](C)CO2)n2ccnc(N)c12
IC50 [nM]: 4.49

molecule: C[C@H](O)C(=O)N1C[C@H](c2nc(-c3ccc(C(=O)Nc4cc(C(F)(F)F)ccn4)cc3F)c3c(N)nccn23)OC[C@@H]1C
IC50 [nM]: 0.368

molecule: CCOc1cc(C(=O)Nc2cc(C(F)(F)F)ccn2)ccc1-c1nc([C@H]2CN(C(=O)C3CC3)[C@@H](C)CO2)n2c(Cl)cnc(N)c12
IC50 [nM]: 1.19

molecule: COc1cc(C(=O)Nc2cc(C(F)(F)F)ccn2)ccc1-c1nc([C@H]2CN(C(=O)C3CN(Cc4c(F)cccc4F)C3)[C@@H](C)CO2)n2ccnc(N)c12
IC50 [nM]: 3.21

molecule: COc1cc(C(=O)Nc2cc(C(F)(F)F)ccn2)ccc1-c1nc([C@H]2CN(C(=O)[C@H](C)OC)[C@@H](C)CO2)n2c(Cl)cnc(N)c12
IC50 [nM]: 3.89

molecule: COCC(=O)N1C[C@H](c2nc(-c3ccc(C(=O)Nc4cc(C(F)(F)F)ccn4)cc3)c3c(N)nccn23)OC[C@@H]1C
IC50 [nM]: 0.738

molecule: CCOc1cc(C(=O)Nc2cc(C(F)(F)F)n(C)n2)ccc1-c1nc([C@H]2CN(C(=O)C3CC3)[C@@H](C)CO2)n2c(Cl)cnc(N)c12
IC50 [nM]: 7.14

molecule: CCOc1cc(C(=O)Nc2cc(C(F)(F)F)ccn2)ccc1-c1nc([C@H]2CN(C(=O)C3CC3(F)F)[C@@H](C)CO2)n2c(Cl)cnc(N)c12 (stereo partly drawn)
IC50 [nM]: 3.12

molecule: C[C@H]1CO[C@@H](c2nc(-c3ccc(C(=O)Nc4cc(C(F)(F)F)ccn4)cc3F)c3c(N)nccn23)CN1C1CCOCC1
IC50 [nM]: 0.329

molecule: CCOc1cc(C(=O)Nc2cc(C(F)(F)F)ccn2)ccc1-c1nc([C@@H]2CC[C@H](C)N(C(=O)[C@@H](C)O)C2)n2c(Cl)cnc(N)c12
IC50 [nM]: 0.274

molecule: CC(=O)N1C[C@H](c2nc(-c3ccc(C(=O)Nc4cc(C(F)(F)F)ccn4)cc3F)c3c(N)nccn23)OC[C@@H]1C
IC50 [nM]: 0.343

molecule: C[C@H](O)C(=O)N1C[C@H](c2nc(-c3ccc(C(=O)Nc4cc(C(F)(F)F)ccn4)cc3Cl)c3c(N)ncc(Cl)n23)OC[C@@H]1C
IC50 [nM]: 0.65

molecule: C[C@H]1CO[C@@H](c2nc(-c3ccc(C(=O)Nc4cc(C(F)(F)F)ccn4)cc3F)c3c(N)nccn23)CN1Cc1cnn(C)c1
IC50 [nM]: 0.47

molecule: CCOc1cc(C(=O)Nc2cc(C(F)(F)F)ccn2)ccc1-c1nc([C@H]2CN(C(=O)C3(C)CC3)[C@@H](C)CO2)n2c(Cl)cnc(N)c12
IC50 [nM]: 1.1

molecule: CCOc1cc(C(=O)Nc2cc(C(F)(F)F)ccn2)ccc1-c1nc([C@H]2CN(C3CCS(=O)(=O)CC3)[C@@H](C)CO2)n2c(Cl)cnc(N)c12
IC50 [nM]: 1.8

molecule: CC(=O)N1C[C@H](c2nc(-c3ccc(C(=O)Nc4cc(C(F)(F)F)ccn4)cc3F)c3c(N)nccn23)OC[C@H]1C
IC50 [nM]: 6.63

molecule: COc1cc(C(=O)Nc2cc(C(F)(F)F)ccn2)ccc1-c1nc([C@H]2CN(C3CN(C(=O)C4CC4)C3)[C@@H](C)CO2)n2ccnc(N)c12
IC50 [nM]: 3.45

Provenance of the data: patent US20170349593A1
